- SYSTEM: T1, LukF
- T1 chain: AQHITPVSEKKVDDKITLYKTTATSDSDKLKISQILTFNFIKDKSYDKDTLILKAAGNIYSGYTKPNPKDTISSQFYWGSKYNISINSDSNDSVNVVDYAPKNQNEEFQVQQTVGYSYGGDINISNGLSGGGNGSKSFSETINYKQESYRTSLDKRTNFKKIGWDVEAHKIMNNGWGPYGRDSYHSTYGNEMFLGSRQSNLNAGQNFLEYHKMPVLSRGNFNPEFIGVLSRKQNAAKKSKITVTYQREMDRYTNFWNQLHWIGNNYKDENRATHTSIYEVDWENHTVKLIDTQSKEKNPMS
- MEASUREMENT PROTOCOL: MSD solution equilibrium; Fab
OBSERVED PROPERTY: pKd
pKd here: minus log base 10 of the concentration, concentration in moles per litre.

AB-28-8 (antibody, V domains shown) VH: QVQLQESGPGLVKPSETLSLTCAVSGYSISSGMGWDWIRQPPGKGLEWIGSIDQRGSTYYNPPLESRVTISVDTSKNQFSLKLSSVTAADTAVYYCARDAGHGVDMDVWGKGTTVTVSS VL: DIQMTQSPSSVSASVGDRVTITCRASQGISRWLAWYQQKPGKAPKLLIYAASSLQSGVPSRFSGSGSGTDFTLTISSLQPEDFATYYCQQGYVFPLTFGGGTKVEIK = 10.34

Incoming: Given the entry AB-28-10 (antibody, V domains shown) VH: QVQLQESGPGLVKPSETLSLTCAVSGYSISSGMGWGWIRQPPGKGLEWIGSIDQRGSTYYNPSLKSRVTISVDTSKNQFSLKLSSVTAADTAVYYCARDAGHAVDMDVWGKGTTVTVSS VL: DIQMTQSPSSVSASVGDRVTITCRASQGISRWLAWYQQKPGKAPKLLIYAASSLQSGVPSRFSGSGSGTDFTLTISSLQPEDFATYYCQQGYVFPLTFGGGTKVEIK , report its measured pKd.
Outgoing: 10.77

Incoming: Given the entry AB-28-13 (antibody, V domains shown) VH: QVQLQESGPGLVKPSETLSLTCAVSGYSISSGMGWDWIRQPPGKGLEWIGSIDQRGSTYYNPSLEGRATISVDTSKNQFSLKLSSVTAADTAVYYCARDAGHGVDMDVWGKGTTVTVSS VL: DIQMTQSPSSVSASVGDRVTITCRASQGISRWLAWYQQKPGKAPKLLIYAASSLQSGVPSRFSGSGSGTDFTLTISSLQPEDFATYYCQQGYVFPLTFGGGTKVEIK , report its measured pKd.
Outgoing: 10.05
